Hey, just so you know, these numbers are from the supplement of paper PMC7877785.

# METHOD: self-splicing fitness, log relative to wild type (ln ratio); higher = more splicing; Tetrahymena group I intron in knt gene, E. coli kanamycin selection, DiMSum; sequences stand for … in CUCUCU…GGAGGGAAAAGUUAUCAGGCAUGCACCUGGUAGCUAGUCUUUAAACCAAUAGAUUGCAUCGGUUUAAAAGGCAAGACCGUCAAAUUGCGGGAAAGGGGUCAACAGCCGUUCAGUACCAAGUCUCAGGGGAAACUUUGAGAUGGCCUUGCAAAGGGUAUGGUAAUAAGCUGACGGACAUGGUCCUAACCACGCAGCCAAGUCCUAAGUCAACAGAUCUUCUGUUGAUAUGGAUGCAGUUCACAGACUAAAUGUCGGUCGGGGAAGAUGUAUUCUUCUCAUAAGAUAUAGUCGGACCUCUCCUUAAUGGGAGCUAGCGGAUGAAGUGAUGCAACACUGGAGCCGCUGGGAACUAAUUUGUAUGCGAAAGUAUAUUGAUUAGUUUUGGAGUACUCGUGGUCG;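 also: selection with 25 µg/mL kanamycin versus none on LB agar overnight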
# CONDITION INFO: 37 °C
Grouping by measured self-splicing fitness (ln) is done with the following cut points: bucket 1: < -3; bucket 2: ≥ -3 and < -0.9; bucket 3: ≥ -0.9

Solved entries (count: 2):
>>> group_label("UAAAAGCAAUAUUACGAGGC")
"bucket 2"
>>> group_label("GACUAGCAAUAUUACGAUCG")
"bucket 3"

Req: Please report the category associated with `GAAAAGCAAUAUUACGCACA` , nothing else.
Resp: bucket 3

Req: Please report the category associated with `CUGCAGCAAUAUUACGAAGC` , nothing else.
Resp: bucket 2

Req: Please report the category associated with `ACCGAGCAAUAUUACGUCAU` , nothing else.
Resp: bucket 2
